target.under.test: T1, DLG3_3, Q92796
T1 sequence (Q92796 374-475, limits assumed, looked up): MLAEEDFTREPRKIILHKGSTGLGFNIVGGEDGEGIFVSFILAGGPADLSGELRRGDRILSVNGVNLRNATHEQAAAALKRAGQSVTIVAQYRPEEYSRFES
experimental.details: holdup assay
Set-up: key: below the threshold = too weak to quantify, mostly under pKd 3.1 to 4
condition.summary: plain residues with an end cap or a label only (N-terminal biotin on a linker: ado-ado)

- binder: "EDPRVEVTQF [SLC22A9, Q8IVM8]"
  pKd: "below the threshold"
- binder: "VLYPREGTEV [FOXI1, Q12951]"
  pKd: 3.8
- binder: "QSGLYESEEL [MYOT, Q9UBF9]"
  pKd: "below the threshold"
- binder: "EIPAQSPTCV [FZD10, Q9ULW2]"
  pKd: 3.81
- binder: "EDLEDEWEVI [TECPR2, O15040]"
  pKd: "below the threshold"
- binder: "PYSESDDDWC [CACNA1A, O00555]"
  pKd: "below the threshold"
- binder: "GIKKITSTAL [RPS6KA3, P51812]"
  pKd: 3.85
- binder: "APIAGFSSFV [SDK2, Q58EX2]"
  pKd: "below the threshold"
- binder: "QRPYRRGSEI [KCNJ18, B7U540]"
  pKd: "below the threshold"
- binder: "NTANRRTTPV [CACNG2, Q9Y698]"
  pKd: 4.69
- binder: "REEPDHSTEV [CCRL2, O00421]"
  pKd: 3.6
- binder: "AQRARSPSDV [GPR12, P47775]"
  pKd: "below the threshold"
- binder: "LESTTVGTSV [KARS1, Q15046]"
  pKd: 3.6
- binder: "PTPDLPQTRV [KLHDC7A, Q5VTJ3]"
  pKd: "below the threshold"
- binder: "SRSVVESDEL [MYPN, Q86TC9]"
  pKd: "below the threshold"
- binder: "NNNVVKVDSV [MTNR1A, P48039]"
  pKd: "below the threshold"
- binder: "SLNANEVEWF [RNF130, Q86XS8]"
  pKd: 3.63
- binder: "KSRVAFFEEL [NF2, P35240;P35240-1]"
  pKd: "below the threshold"
- binder: "QLSFNTDTLC [ABCA2, Q9BZC7]"
  pKd: "below the threshold"
- binder: "DGVNEKVSCV [HTR2A, P28223]"
  pKd: "below the threshold"
